# Target system: T1, HLA-B*08:01 (human)
# T1 construct: MHC monomer first loaded with a UV-sensitive peptide that is cleaved by UV light and exchanged for the test peptide
# Protocol text: UV peptide exchange ELISA
# From the text: Candidate peptides for T cell based therapies according to the present invention were further tested for their MHC binding capacity (affinity). The individual peptide-MHC complexes were produced by UV-ligand exchange, where a UV-sensitive peptide is cleaved upon UV-irradiation and exchanged with the peptide of interest as analyzed. Only peptide candidates that can effectively bind and stabilize the peptide-receptive MHC molecules prevent dissociation of the MHC complexes. […]
Parameter: peptide exchange yield

Worked examples, 4 binders total:
• DTHTNTYYL [DTHTNTYYL (SEQ ID NO: 229)] = 20 to 50%
• LLILKTVL [LLILKTVL (SEQ ID NO: 17)] = 50 to 75%
• RGALRTLSL [RGALRTLSL (SEQ ID NO: 41)] = 20 to 50%
• VPYTKVQL [VPYTKVQL (SEQ ID NO: 89)] = 50 to 75%

Prompt line: Which peptide exchange yield is reported for this binder? MAFVKHLL [MAFVKHLL (SEQ ID NO: 118)]
Response line: 50 to 75%

Prompt line: What do we get for YNLIYSMCL [YNLIYSMCL (SEQ ID NO: 142)] ?
Response line: 50 to 75%

Prompt line: What do we get for NAYEAPSI [NAYEAPSI (SEQ ID NO: 241)] ?
Response line: 20 to 50%

Prompt line: What do we get for SIQSRYISM [SIQSRYISM (SEQ ID NO: 3)] ?
Response line: 50 to 75%

Prompt line: What do we get for ILHLSAIAL [ILHLSAIAL (SEQ ID NO: 182)] ?
Response line: ≥ 75%

Prompt line: What do we get for TQHLTVATL [TQHLTVATL (SEQ ID NO: 138)] ?
Response line: 50 to 75%

Prompt line: What do we get for MRFQQFLFA [MRFQQFLFA (SEQ ID NO: 175)] ?
Response line: 10 to 20%

Prompt line: What do we get for ELFQRPVL [ELFQRPVL (SEQ ID NO: 35)] ?
Response line: 20 to 50%

Prompt line: What do we get for IPLAIARL [IPLAIARL (SEQ ID NO: 238)] ?
Response line: 50 to 75%

Prompt line: What do we get for MPMQDIKMIL [MPMQDIKMIL (SEQ ID NO: 91)] ?
Response line: 20 to 50%

Prompt line: What do we get for FQRVSSVSF [FQRVSSVSF (SEQ ID NO: 119)] ?
Response line: 50 to 75%

Prompt line: What do we get for QVMPKTGL [QVMPKTGL (SEQ ID NO: 4)] ?
Response line: 20 to 50%

Prompt line: What do we get for QPYRFPQA [QPYRFPQA (SEQ ID NO: 157)] ?
Response line: 20 to 50%
